Parameter measured: melting point (°C)

Molecule	Parameter measured	Unit text	Val
COc1[nH]c(C)cc1C#N	melting point	°C	105
CCCC(=O)C1=C(O)CC(c2cc([N+](=O)[O-])ccc2F)CC1=O (stereo not given)	melting point	°C	132
CSc1ccc(C(=O)c2cc(-c3ccccc3)c(N3CCOCC3)s2)cc1	melting point	°C	165
CC(C1CC1)N(CCCc1c[nH]c2ccc(F)cc12)C1COc2c(F)ccc(C(N)=O)c2C1 (stereo not given)	melting point	°C	124

###

In this section we review reported melting point values for a set of molecules.

Molecule	melting point
CC1(C)CC(=O)Nc2c(Br)cc3c(c21)OC(CN=[N+]=[N-])C3 (configuration not stated)	187 to 189 °C
CN(C(=O)c1cc(C(F)(F)F)cc(C(F)(F)F)c1)C(CCCC(=O)O)Cc1c[nH]c2ccccc12 (configuration not stated)	152 to 157 °C
CCOC(=O)Nc1ccc(C(c2ccccc2)n2ccnc2)cc1C=O (configuration not stated)	107 °C
CCCCOc1cccc(C(=O)C=Cc2ccc(OC)cc2OC)c1	80.4 to 81.3 °C
OCC1OC(n2c(Cl)nc3cc(Cl)ccc32)C(O)C1O (configuration not stated)	102 to 150 °C
COc1ccc(Nc2nc(Cl)nc(NCC3CCCCC3)n2)cc1F	156 °C
O=C(O)CC1(O)CCC(N2CCN(CCNc3ccncc3)CC2)CC1 (configuration not stated)	238 to 240 °C
O=S1(=O)NCCCN1CCc1ccncc1	124 to 125 °C
CC(C)C[C@H](NC(=O)OCc1ccccc1)C(=O)NC(Cc1ccc(F)cc1)C(=O)CSCc1ccco1 (some centres not stated)	101 °C
CCCCc1nc2ccc(O)cc2c(=O)n1Cc1ccc(-c2ccccc2-c2nnn[nH]2)cc1	212 to 214 °C
CCCCc1nc(CCO)c[nH]1	92 to 93 °C
COc1ccc([C@H]2NC(SC)=N[C@H]2c2ccc(OC)cc2)cc1	132 to 134 °C
Cc1ccc2[nH]c(=O)oc(=O)c2c1	257 °C
CC(=O)OC1CSC(Oc2cncc(I)c2)C(OC(C)=O)C1OC(C)=O (configuration not stated)	148 to 150 °C
N#Cc1ccc(OCc2ccsc2)cc1OC(CCC(=O)O)c1c(F)cccc1Cl (racemic)	128 to 130 °C
Cc1nc2c(O[C@@H]3c4ccccc4C[C@H]3O)cc(Cl)cn2c1N (relative stereo)	223 to 225 °C
O=C1NCCCCC1Br (configuration not stated)	109 to 111 °C
CC1CCN(C(=O)[C@H](CCCSc2ccccn2)NS(=O)(=O)c2ccc3ccccc3c2)CC1	131 to 132 °C
CN(Cc1ccccc1)c1cc(=S)ss1	138 to 140 °C
O=C(O)CCSCC(=O)c1ccc2[nH]c(=O)[nH]c2c1	212 to 215 °C
CN1CCN(c2ccnc3c(NC(=O)c4c(Cl)cccc4Cl)cc(Cl)cc23)C1=O	> 250 °C
CCc1ccc(CC2N=C(c3ccc(F)cc3)c3cc(Cl)ccc3NC2=O)cc1CC (configuration not stated)	88 to 90 °C
CCCCCCCCCCCCCCCOC(=O)c1cccnc1	35 °C
CC(C)c1cc(S(=O)(=O)Cl)c(C(C)C)cc1Br	80.5 to 83 °C
CC1(C)CC(NC(=O)Nc2ccc(C(F)(F)F)cc2)CC(C)(C)C1=O	152 to 153 °C
COC1(c2cc(OCc3ccc4c(c3)OCCC4=NO)nc(N)n2)CCOCC1	224 to 228 °C
COC(=O)c1cc(S(N)(=O)=O)c(Br)cc1C	198 to 200 °C
CC(C)(C)OC(=O)C(C1NC(C(=O)O)C2(CCOCC2)S1)N1C(=O)c2ccccc2C1=O (configuration not stated)	199 to 200 °C
O=[N+]([O-])c1ccc2[nH]cc(C3=CCN(Cc4ccccc4)CC3)c2c1	168 to 170 °C
Cc1c(C(=O)Nc2ccc(N3CCC(O)CC3)c(C#N)c2)c2cc(F)ccc2n1CC(=O)O	> 250 °C
O=C(O)Cc1cc(N=Nc2ccc(S(=O)(=O)Nc3ccccn3)cc2)ccc1O	135 °C
Cc1noc(C)c1Cn1cc(NC(=O)c2scc(S(C)(=O)=O)c2Cl)cn1	202 to 204 °C
CC1CN(c2c(F)cc3c(=O)c(C(=O)O)cn(C4CC4)c3c2OC(F)F)CCN1 (configuration not stated)	223 to 225 °C
CO[C@@H]1CC[C@@H](NC(N)=O)c2ccccc21 (relative stereo)	159 to 165 °C
CC(=O)OCCCNc1cc(C)nc2cn[nH]c12	115 to 119 °C
COC(=O)CN(C)C(=O)c1c2ccc(Cl)ccc-2[nH]c1=O	170 to 172 °C
COc1ccc(C(=O)N2CCc3cc(OCc4ccccc4)c(OC)cc3C2=O)cc1	151 to 152 °C
O=C(Cl)Cc1ccccc1Br	79 °C
CC(=O)Nc1ccnn(C)c1=O	152 to 153 °C
CCOC(=O)C(=CNc1nnc(N2CCOC(C)C2)s1)C(=O)OCC (configuration not stated)	89 to 91 °C
CC(=O)N1CC(CCN2CC=C(c3ccccc3)CC2)c2cc3c(cc21)OCO3 (configuration not stated)	90 to 91 °C
O=C1C(=O)N(Cc2ccc([N+](=O)[O-])cc2)CCN1Cc1ccc([N+](=O)[O-])cc1	257 to 260 °C

###

# melting point annotations

Compound	melting point
ON=Cc1cc(Cl)ccc1O	125 to 126 °C
c1cc2[nH]ncc2nc1N1CCCCC1	217 to 218 °C
Clc1cnc(N2CCNCC2)cn1	98 to 102 °C
OCC(=C(c1ccc(F)cc1)c1ccc(F)cc1)n1cnnn1	152 to 154 °C
Nc1nc(-c2ccc(F)cc2)c(CCN2CCC(n3nnc4cc(F)ccc43)CC2)s1	234 to 235 °C
COc1ccc(Cl)cc1C(=O)NCCc1ccc(-c2cc(C)cs2)c(S(N)(=O)=O)c1	165 to 168 °C
CC(=O)Oc1cccc2c1N=CC1CCCN1C2=O (stereo unspecified)	143 to 146 °C
CC(=O)OC1CSC(Oc2cnccc2Br)C(OC(C)=O)C1OC(C)=O (stereo unspecified)	153 °C
N#CC1CN1C(=O)NC(=O)CCl (stereo unspecified)	152 to 155 °C
Cc1cc(C)c(CC(=O)N(C)CC(=O)O)c(C)c1	140 °C
CCCCCCCCCCCCCCOc1ccc(CC(=O)O)cc1Cl	68 to 69 °C

###

// melting point lookup, one value per entry

Compound	melting point
Cn1cc(-c2ccc(C(=O)N3Cc4cccn4Cc4ccccc43)cc2)cn1	200 to 201 °C
CC(C)(C)c1nc2cc(N3CCN(c4ccccc4)CC3)c([N+](=O)[O-])cc2s1	152 to 155 °C
O=C(CCC(=O)N1CCC[C@H]1C(=O)O)c1ccc(F)cc1	127 to 129 °C
O=C(O)CCCCCCCCCCCCCCCCCCC(=O)n1nnc2ccccc21	112 °C
CC(=O)c1c(C)c(NC(=O)CC(C)(C)C)c(C)c2c1S(=O)(=O)CC2c1ccc(C(C)C)cc1 (configuration not stated)	184 to 186 °C
CC(O)C(Oc1ccc(NC(=O)NC(=O)c2ccccc2Cl)cc1)c1ccccc1 (configuration not stated)	142 to 144 °C
Fc1ccc(-c2nc3ccccn3c2Br)c(F)c1	144 °C
COc1ccc(Cl)cc1C1C(=O)Nc2cc(C(F)(F)F)ccc21 (configuration not stated)	210 to 213 °C
CC1(C)C[C@H]2c3cccc4c3N(CCNC4)[C@H]2C1	155 to 157 °C
CS(=O)(=O)c1ccc(C2=C(c3ccc(F)cc3)CC(CF)(CF)C2)cc1	134 to 135 °C
CCCCc1ccc(C2(O)CN3CCC2CC3)o1 (configuration not stated)	94 to 96 °C
COC(=O)c1ccc(OCCCOc2c(C)c(C)c(C(=O)Oc3c(C)c(C)c(C(N)=O)c(OC)c3C)c(OC)c2C)cc1	202 to 204 °C
Cc1c(Br)c(Br)nn1C(C)C(=O)N(C)C(C)C (configuration not stated)	95 to 96.5 °C
CN1CCN(c2nc3c(cc2F)c(=O)c(C(=O)O)cn3C2CSC2)CC1	270 to 280 °C
O=C(O)CCCCCNS(=O)(=O)c1ccc(Cl)cc1	126 to 127 °C
COc1nc(NC(=O)NS(=O)(=O)c2csc3ccccc23)nc(OC)n1	152 °C
CCOC(=O)c1ncn(C2OC(COC(=O)c3ccccc3)C(OC(=O)c3ccccc3)C2OC(=O)c2ccccc2)c1C(=O)OCC (configuration not stated)	134 to 136 °C
CC(C)(C)OC(=O)N1CCC(n2c(=O)n(CC(F)(F)F)c3cc(F)ccc32)CC1	172 to 173 °C
CSc1cc(CCC(=O)OC(C)(C)C)nc(-c2nc(=O)c3ccccc3s2)c1	155 to 156 °C
CCOC(=O)c1sc(C)nc1Oc1cccc(C(F)(F)F)c1	56 °C
CCc1nc2c(N)nc3cc(OCc4ccc(C(=O)OC)o4)ccc3c2s1	184 to 186 °C
CCN(CC)C(=O)n1nc(C(C)(C)C)cc1SC	55 to 56 °C
Oc1ccccc1CNC1CCN(Cc2ccccc2)CC1	92.5 to 93 °C
CCOC(=O)C1=C(COCC#CC(O)c2ccccc2)NC(C)=C(C(=O)OC)C1c1cccc(Cl)c1Cl (configuration not stated)	160 to 164 °C
N#CCCN(CC1CC1)C(N)=O	84 to 87 °C
N#CCCCC1Sc2ccccc2NC1=O (configuration not stated)	107 to 108 °C
Cn1ncnc1COc1nn2cnnc2cc1-c1ccsc1	220 to 222 °C
CCCC(OC)(C(=O)n1ccnc1)c1ccc(Cl)cc1Cl (configuration not stated)	99 to 101 °C
CC(=O)c1cc2c(cc1O)CCCC2	70 to 72 °C
CNC(=O)N(C=O)c1cccc(C)c1	112 to 113 °C
ON=C(Cn1cncn1)c1ccc(Cl)cc1Cl	117 °C
CCOC(=O)c1c(C)c(C(=O)CC#N)n(C)c1C	105 °C
O=[N+]([O-])c1ccc(Oc2cc3ccccc3cc2Oc2ccc([N+](=O)[O-])c(O)c2)cc1O	179 to 181 °C
COc1cc(OC)c(S(=O)(=O)Cl)c(OC)c1	126 to 129 °C
Fc1ccc(-c2nc3ccccc3n3cncc23)cc1	214 to 215 °C
CCOc1nc2c(nc1C(=O)O)c(C)nn2CC	172 °C
CC(=O)Nc1[nH]c(-c2ccc(O)cc2)nc1C	277 to 279 °C
C=C(C)C(=O)OCc1c(Br)c(Br)c(Br)c(COC(=O)C(=C)C)c1Br	97 to 99 °C
CCOC(=O)C(Cc1ccc(C(F)(F)F)cc1)C(=O)c1ccc(F)cc1 (configuration not stated)	56 to 57 °C
O=C1CC2CCC1C(Nc1ccc(Cl)cc1)C21CCCCC1 (configuration not stated)	139 to 141 °C
CNC(=S)n1nc(NC(=O)c2ccccc2)nc1N	> 300 °C
O=C1Nc2ccc(C(O)c3ccc(Cl)cc3)cc2C(c2cccc(Cl)c2)N1 (configuration not stated)	231 °C
